Test system: Hs-578T
method: NCI tumour cell line growth inhibition, 48 h
Activity calls are given as the source filed them. No stated cut-off is given here; in the data, active = GI50 up to about 1.1 µM and inactive = higher.
measure: GI50

[
  {
    "molecule": "CCCCCNC(=O)c1cc2cc(CCl)ccc2oc1=O",
    "assayed-target": "Hs-578T",
    "measure": "GI50",
    "value-measured": "6.37 µM (inactive)"
  },
  {
    "molecule": "COc1cc2c3c4[n+](cc2c(OC)c1OC)CCC4CCC3 (stereo not given)",
    "assayed-target": "Hs-578T",
    "measure": "GI50",
    "value-measured": "> 100 µM (inactive)"
  },
  {
    "molecule": "CC(NCc1c(O)ccc2ccc(=O)oc12)C(=O)O (stereo not given)",
    "assayed-target": "Hs-578T",
    "measure": "GI50",
    "value-measured": "> 100 µM (inactive)"
  },
  {
    "molecule": "C[C@@H]1CC[C@]2(C(=O)O)CC[C@]3(C)C(=CC[C@@H]4[C@@]5(C)CC[C@H](O)C(C)(C)[C@@H]5CC[C@]43C)[C@@H]2[C@]1(C)O [POMOLIC ACID]",
    "assayed-target": "Hs-578T",
    "measure": "GI50",
    "value-measured": "3.52 µM (inactive)"
  },
  {
    "molecule": "O=C(NO)NCCCl",
    "assayed-target": "Hs-578T",
    "measure": "GI50",
    "value-measured": "> 100 µM (inactive)"
  },
  {
    "molecule": "CN(C)c1ccc(/C=C/C=C(/C#N)c2ccccc2)cc1",
    "assayed-target": "Hs-578T",
    "measure": "GI50",
    "value-measured": "21.9 µM (inactive)"
  },
  {
    "molecule": "COc1cc(OC)cc(C(=O)NC2=C(Cl)C(=O)c3ccccc3C2=O)c1",
    "assayed-target": "Hs-578T",
    "measure": "GI50",
    "value-measured": "3.3 µM (inactive)"
  },
  {
    "molecule": "COc1cc2c(cc1OC)C(=O)N(c1ccc(OCCN3CCCC3)cc1)C2=O",
    "assayed-target": "Hs-578T",
    "measure": "GI50",
    "value-measured": "> 100 µM (inactive)"
  },
  {
    "molecule": "OC(COc1ccccc1)CN1CCCCC1 (stereo not given)",
    "assayed-target": "Hs-578T",
    "measure": "GI50",
    "value-measured": "> 100 µM (inactive)"
  },
  {
    "molecule": "COC(=O)C1=C(C(=O)OC)N(c2ccc(OC)cc2[N+](=O)[O-])C(c2ccc(C)cc2)=CC1c1ccc(OC)cc1OC (stereo not given)",
    "assayed-target": "Hs-578T",
    "measure": "GI50",
    "value-measured": "31.7 µM (inactive)"
  }
]
